The following binders are shown together with reported SPOT peptide array binding signal intensity values.
Molecular target: ScLsb2
Test: SPOT peptide array binding signal intensity (averaged, normalized) (arbitrary units (background-subtracted, floor 0; scale differs between SH3 domains)); higher = stronger binding of the SH3 domain to the peptide

Completed entries (count: 3):
binder=ALKQKKIPPPFKPHL obs_value="≤ 0"
binder=RFKRHRLEFPFNESE obs_value=3
binder=LEFRAILFIPKRAPF obs_value="≤ 0"

Query string: Give the measured SPOT peptide array binding signal intensity of ATNVPVAPPPPPASL .
Result string: ≤ 0

Taken from the supplement of paper PMC4466140.
